Tested on: Escherichia coli IAI1
Test: fold change of Putrescine concentration vs plate DMSO controls (fold change (ratio)); higher = more amine produced, active = hit call of the paper (significant change in both replicates, either direction)
Details: incubation time: 27 h, anaerobic, 37 °C

{"columns": ["compound", "fold change of Putrescine concentration"],
 "data": [
  ["O=C1NCCN1CCN1CCC(c2cn(-c3ccc(F)cc3)c3ccc(Cl)cc23)CC1 [Sertindole] (20 µM)", 1.31],
  ["C/C(=C(\\CCOP(=O)(O)O)SC(=O)c1ccccc1)N(C=O)Cc1cnc(C)nc1N [Benfotiamine] (20 µM)", 0.942],
  ["COc1ccc2cc1Oc1ccc(cc1)C[C@H]1c3c(cc4c(c3Oc3cc5c(cc3OC)CCN(C)[C@@H]5C2)OCO4)CCN1C [Cepharanthine] (20 µM)", 0.952],
  ["COc1ccccc1OCC(O)COC(N)=O (stereo not given) [Methocarbamol] (20 µM)", 0.998],
  ["CCOC(=O)C1=C[C@]2(CC)CCCN3CCc4c(n1c1ccccc41)[C@@H]32 [Vinpocetine] (20 µM)", 0.995]
]}
